Where do these numbers come from? They come from ChEMBL document CHEMBL3259642.

# Lookup of reported Ratio IC50 keyed by entry
# procedure-details: Selectivity index, ratio of IC50 for ovine COX1 to IC50 for human recombinant COX2

Dear colleague, I am looking for the recorded Ratio IC50 of the following compound: "Clc1ccc(-c2nn(-c3ccccc3)cc2-c2nnc(-c3ccncc3)o2)cc1"
> 23

# iterate: "c1ccc(-c2nnc(-c3cn(-c4ccccc4)nc3-c3ccccc3)o2)cc1"
> 67

Request: "Clc1ccc(-c2nnc(-c3cn(-c4ccccc4)nc3-c3ccc(Br)cc3)o2)cc1"
> 2

====

# target-entity: Prostaglandin G/H synthase 2 (Homo sapiens)
# Sequence (P35354 whole entry): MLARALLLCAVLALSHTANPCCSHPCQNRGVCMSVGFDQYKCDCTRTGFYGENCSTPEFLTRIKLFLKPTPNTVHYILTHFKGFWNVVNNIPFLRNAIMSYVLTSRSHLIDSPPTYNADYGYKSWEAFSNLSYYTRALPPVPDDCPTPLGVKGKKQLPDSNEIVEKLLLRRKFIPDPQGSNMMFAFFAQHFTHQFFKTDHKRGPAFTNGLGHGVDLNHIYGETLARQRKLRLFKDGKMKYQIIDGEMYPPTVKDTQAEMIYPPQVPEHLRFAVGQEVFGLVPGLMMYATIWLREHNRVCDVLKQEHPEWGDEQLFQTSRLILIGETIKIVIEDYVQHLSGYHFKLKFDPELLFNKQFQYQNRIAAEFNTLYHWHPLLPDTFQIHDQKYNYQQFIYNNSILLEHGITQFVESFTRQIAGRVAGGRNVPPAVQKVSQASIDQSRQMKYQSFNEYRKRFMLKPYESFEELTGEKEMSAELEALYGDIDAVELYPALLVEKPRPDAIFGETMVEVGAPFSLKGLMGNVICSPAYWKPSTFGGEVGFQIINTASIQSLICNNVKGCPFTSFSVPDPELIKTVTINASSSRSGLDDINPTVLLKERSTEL
# procedure-details: Inhibition of human recombinant COX2 after 2 mins by EIA
pIC50: −log10 of the molar value.
measured-property: pIC50

c1ccc(-c2nnc(-c3cn(-c4ccccc4)nc3-c3ccccc3)o2)cc1    5.82
Clc1ccc(-c2nnc(-c3cn(-c4ccccc4)nc3-c3ccc(Br)cc3)o2)cc1    4.30
Fc1ccc(-c2nn(-c3ccccc3)cc2-c2nnc(-c3ccncc3)o2)cc1    5.64

[a] Clc1ccc(-c2nn(-c3ccccc3)cc2-c2nnc(-c3ccccc3)o2)cc1
[b] c1ccc(-c2nn(-c3ccccc3)cc2-c2nnc(-c3ccncc3)o2)cc1
[c] Cc1ccc(-c2nn(-c3ccccc3)cc2-c2nnc(-c3ccncc3)o2)cc1
[d] Cc1ccc(-c2nn(-c3ccccc3)cc2-c2nnc(-c3ccccc3)o2)cc1
[e] O=[N+]([O-])c1ccc(-c2nn(-c3ccccc3)cc2-c2nnc(-c3ccccc3)o2)cc1
Order field: pIC50 | Direction: descending (largest first) Give the order by naming the labels one after another as requested.
e, a, b, d, c
